Origin of values: ChEMBL document CHEMBL1144892

# TGT: Prostaglandin D2 receptor (Homo sapiens, UniProt Q13258)
# PROCEDURE_TEXT: Concentration required to inhibit the PGD-2 evoked cAMP formation in human platelets
# Format: functional
READOUT: IC50 (nM)

CC1(C)[C@H]2C[C@H](C/C=C/CCCC(=O)O)[C@@H](NC(=O)c3ccc4c(c3)OCO4)[C@@H]1C2    170

A: COc1ccc(C(=O)N[C@@H]2[C@@H](C/C=C/CCCC(=O)O)C[C@H]3C[C@@H]2C3(C)C)cc1
B: COc1ccccc1C(=O)N[C@@H]1[C@@H](C/C=C/CCCC(=O)O)C[C@H]2C[C@@H]1C2(C)C
Problem: Decide: A or B , by lowest recorded IC50. Refer to your chosen item by its label in the answer.
Solution: A

* * *

# TGT: Prostaglandin D2 receptor (Homo sapiens, UniProt Q13258)
# PROCEDURE_TEXT: Concentration required to inhibit the PGD-2 evoked cAMP formation in human platelets
# Format: functional
READOUT: IC50 (nM)

A selection of reference data follows.
CC1(C)[C@H]2C[C@H](C/C=C/CCCC(=O)O)[C@@H](NC(=O)c3csc(-c4ccccc4)c3)[C@@H]1C2    100
CC1(C)[C@H]2C[C@H](C/C=C/CCCC(=O)O)[C@@H](NC(=O)c3cncs3)[C@@H]1C2    500
CC1(C)[C@H]2C[C@H](C/C=C\CCCC(=O)O)[C@@H](NC(=O)c3ccc(-c4ccccc4)cc3)[C@@H]1C2    470
CC1(C)[C@H]2C[C@H](C/C=C/CCCC(=O)O)[C@@H](NC(=O)c3csc4ccc(F)cc34)[C@@H]1C2    3.2
Cc1cc(C(=O)N[C@@H]2[C@@H](C/C=C/CCCC(=O)O)C[C@H]3C[C@@H]2C3(C)C)cs1    25
CC1(C)[C@H]2C[C@H](C/C=C/CCCC(=O)O)[C@@H](NC(=O)c3csc4ccc(NS(C)(=O)=O)cc34)[C@@H]1C2    30
Cc1scc(C(=O)N[C@@H]2[C@@H](C/C=C/CCCC(=O)O)C[C@H]3C[C@@H]2C3(C)C)c1-c1ccccc1    74
Cn1ccc(C(=O)N[C@@H]2[C@@H](C/C=C/CCCC(=O)O)C[C@H]3C[C@@H]2C3(C)C)c1    110

a: CC1(C)[C@H]2C[C@H](C/C=C/CCCC(=O)O)[C@@H](NC(=O)Cc3ccoc3)[C@@H]1C2
b: CC1(C)[C@H]2C[C@H](C/C=C/CCCC(=O)O)[C@@H](NC(=O)c3cc4ccccc4s3)[C@@H]1C2
Problem: Choose between a and b : whose measured IC50 value is numerically larger? Reply briefly: the label of your chosen item.
Solution: b

I: CC1(C)[C@H]2C[C@H](C/C=C/CCCC(=O)O)[C@@H](NC(=O)c3csc4cc(O)ccc34)[C@@H]1C2
II: CC1(C)[C@H]2C[C@H](C/C=C/CCCC(=O)O)[C@@H](NC(=O)c3ccc([N+](=O)[O-])cc3)[C@@H]1C2
Problem: Lowest IC50? choose I or II Use the label to indicate which entry you chose.
Solution: I

1: CC1(C)[C@H]2C[C@H](C/C=C/CCCC(=O)O)[C@@H](NC(=O)c3cc4ccccc4o3)[C@@H]1C2
2: CC1(C)[C@H]2C[C@H](C/C=C\CCCC(=O)O)[C@@H](NS(=O)(=O)c3ccc(-c4ccccc4)cc3)[C@@H]1C2
Problem: Out of 1 and 2 , name the one with the higher IC50. Give the chosen item's label as your response.
Solution: 2

* * *

Listing: inhibition in vivo at 10 mg/kg of selected molecules
# Test system: Cavia porcellus
# PROCEDURE_TEXT: In vivo inhibition of antigen-induced increase in intranasal pressure in actively sensitized guinea pig administered perorally with 10 mg/Kg compound, 10 minutes before the antigen challenge
# Assay type: functional
# CONDITION: oral
Give a bare numeral; the unit % is implied.

Some molecules with known inhibition in vivo at 10 mg/kg results, for comparison:
CC1(C)[C@H]2C[C@H](C/C=C/CCCC(=O)O)[C@@H](NC(=O)c3cccc4ccsc34)[C@@H]1C2    70
CC1(C)[C@H]2C[C@H](C/C=C/CCCC(=O)O)[C@@H](NC(=O)c3csc4cc(O)ccc34)[C@@H]1C2    88
CC1(C)[C@H]2C[C@H](C/C=C/CCCC(=O)O)[C@@H](NC(=O)c3csc4ccc(O)cc34)[C@@H]1C2    96

Problem: Report inhibition in vivo at 10 mg/kg for CC1(C)[C@H]2C[C@H](C/C=C/CCCC(=O)O)[C@@H](NC(=O)c3csc4ccccc34)[C@@H]1C2 please.
Solution: 82

* * *

# TGT: Prostaglandin D2 receptor (Homo sapiens)
# Sequence (Q13258 whole entry): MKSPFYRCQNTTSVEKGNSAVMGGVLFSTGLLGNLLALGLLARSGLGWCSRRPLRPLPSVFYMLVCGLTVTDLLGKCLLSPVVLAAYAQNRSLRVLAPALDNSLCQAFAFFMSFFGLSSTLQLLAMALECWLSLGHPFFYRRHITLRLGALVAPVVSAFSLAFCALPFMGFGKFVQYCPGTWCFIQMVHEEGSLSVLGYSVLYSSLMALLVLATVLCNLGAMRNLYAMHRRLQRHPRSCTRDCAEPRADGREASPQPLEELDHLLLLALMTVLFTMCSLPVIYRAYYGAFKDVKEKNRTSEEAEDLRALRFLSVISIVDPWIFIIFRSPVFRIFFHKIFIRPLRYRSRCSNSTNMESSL
# PROCEDURE_TEXT: Prostaglandin D2 receptor antagonist activity, evaluated by inhibition of [3H]PGD-2 binding to human platelet membranes
READOUT: IC50 (nM)

CC1(C)[C@H]2C[C@H](C/C=C/CCCC(=O)O)[C@@H](NC(=O)c3ccc4c(c3)OCO4)[C@@H]1C2    2100
CC1(C)[C@H]2C[C@H](C/C=C/CCCC(=O)O)[C@@H](NC(=O)c3cccc4ccsc34)[C@@H]1C2    26
CC1(C)[C@H]2C[C@H](C/C=C/CCCC(=O)O)[C@@H](NC(=O)c3ccc(O)cc3)[C@@H]1C2    3400
CC1(C)[C@H]2C[C@H](C/C=C/CCCC(=O)O)[C@@H](NC(=O)c3cccs3)[C@@H]1C2    3300

1: COc1ccc(C(=O)N[C@@H]2[C@@H](C/C=C/CCCC(=O)O)C[C@H]3C[C@@H]2C3(C)C)cc1
2: CC1(C)[C@H]2C[C@H](C/C=C/CCCC(=O)O)[C@@H](NC(=O)c3csc4ccccc34)[C@@H]1C2
3: CC1(C)[C@H]2C[C@@H](NS(=O)(=O)c3ccc(-c4ccccc4)cc3)[C@H](C/C=C\CCCC(=O)O)[C@@H]1C2
Problem: // smallest IC50 at index 0, largest at the end Sort and list the labels as requested.
Solution: 2, 3, 1
(2: 32 nM, 3: 1300 nM, 1: 3900 nM)

* * *

# TGT: Prostaglandin D2 receptor (Homo sapiens)
# PROCEDURE_TEXT: Prostaglandin D2 receptor antagonist activity, evaluated by inhibition of [3H]PGD-2 binding to human platelet membranes
READOUT: IC50 (nM)

Completed entries (count: 2):
Cc1sccc1C(=O)N[C@@H]1[C@@H](C/C=C/CCCC(=O)O)C[C@H]2C[C@@H]1C2(C)C    180
CC1(C)[C@H]2C[C@H](C/C=C/CCCC(=O)O)[C@@H](NC(=O)Cc3ccoc3)[C@@H]1C2    560

a: CC1(C)[C@H]2C[C@H](C/C=C/CCCC(=O)O)[C@@H](NC(=O)c3cc4ccccc4o3)[C@@H]1C2
b: COc1cscc1C(=O)N[C@@H]1[C@@H](C/C=C/CCCC(=O)O)C[C@H]2C[C@@H]1C2(C)C
c: CC1(C)[C@H]2C[C@H](C/C=C/CCCC(=O)O)[C@@H](NC(=O)c3csc4ccc(O)cc34)[C@@H]1C2
d: CC1(C)[C@H]2C[C@H](C/C=C/CCCC(=O)O)[C@@H](NC(=O)c3cccnc3)[C@@H]1C2
Problem: Rank ascending by IC50. Show the ranking through the labels, in the order asked for.
Solution: c, d, a, b

* * *

# TGT: Prostaglandin D2 receptor (Homo sapiens, UniProt Q13258)
# PROCEDURE_TEXT: Concentration required to inhibit the PGD-2 evoked cAMP formation in human platelets
# Type: functional
pIC50: −log10 of the molar value.
READOUT: pIC50

COc1cscc1C(=O)N[C@@H]1[C@@H](C/C=C/CCCC(=O)O)C[C@H]2C[C@@H]1C2(C)C    6.64
CC1(C)[C@H]2C[C@H](C/C=C/CCCC(=O)O)[C@@H](NC(=O)c3csc4c3CCCC4)[C@@H]1C2    7.46

P: CC1(C)[C@H]2C[C@H](C/C=C/CCCC(=O)O)[C@@H](NC(=O)c3ccc[nH]3)[C@@H]1C2
Q: CC1(C)[C@H]2C[C@H](C/C=C/CCCc3nnn[nH]3)[C@@H](NC(=O)c3ccsc3)[C@@H]1C2
R: CC1(C)[C@H]2C[C@H](C/C=C/CCCC(=O)O)[C@@H](NC(=O)c3cccc4ccsc34)[C@@H]1C2
S: CC1(C)[C@H]2C[C@H](C/C=C/CCCC(=O)O)[C@@H](NC(=O)c3ccc(O)cc3)[C@@H]1C2
Problem: Form: Sort by [pIC50] Order [ ascending ] Put the labels in the requested order and list them out.
Solution: S, Q, P, R
(S: 6.62, Q: 7.03, P: 7.43, R: 8.25)
